- test name: Cytotoxicity CC50 in Calu-3 lung epithelial cells
- Type: cell-based, human
- condition set: human, Calu-3 cells, Log [inhibitor] -7.52; single replicates; read-out: % of Viability
measurement label: viability at 24 h, 0.03 µM (%)
Numbers only here, please. The scale is %.

# viability at 24 h, 0.03 µM of CC(=O)N[C@@H](CCC(N)=O)C(=O)N[C@@H](Cc1ccccc1)C(=O)N[C@@H](CCCNC(=N)N)C(=O)c1nc2ccccc2s1 [Compound N-386] = 101

# viability at 24 h, 0.03 µM of N=C(N)NCCCCC(=O)N[C@@H](CCC(=O)O)C(=O)N[C@@H](Cc1ccccc1)C(=O)N[C@@H](CCCNC(=N)N)C(=O)c1nc2ccccc2s1 [Compound N-0438, (H)REFR-kbt] = 107

# viability at 24 h, 0.03 µM of CS(=O)(=O)N[C@@H](CCC(N)=O)C(=O)N[C@@H](Cc1ccccc1)C(=O)N[C@@H](CCCNC(=N)N)C(=O)c1nc2ccccc2s1 [Compound N-385] = 116

# viability at 24 h, 0.03 µM of N=C(N)NCCCCC(=O)NC(CCC(N)=O)C(=O)NC(Cc1ccccc1)C(=O)NC(CCCNC(=N)N)C(=O)c1nc2ccccc2s1 (stereo not shown) [Compound N-0130, (H)RQFR-kbt] = 99
